Source: a melting point compilation (Tetko et al.; mined from patent text by program, amines drawn as free bases though some values may be those of a salt)

measurement_label: melting point

[[record]]
smiles_code = "C=CCOc1cc2c(cc1CC=C)CCC(=O)N2"
val = "137 to 139 °C"

[[record]]
smiles_code = "O=c1[nH]c2ccsc2c(=O)n1CCN1CCC(=C(c2ccc(F)cc2)c2ccc(F)cc2)CC1"
val = "207 to 208 °C"

[[record]]
smiles_code = "CNc1c(C(=O)OC)cccc1[N+](=O)[O-]"
val = "138 to 140 °C"

[[record]]
smiles_code = "CCOc1c2ccccc2nc2c1c(C)nn2-c1ccccn1"
val = "121 to 123 °C"

[[record]]
smiles_code = "CCCCCCCCCCCCCCCCOc1ccc(OCC(=O)N(Cc2ccccn2)C(C)=O)cc1"
val = "58 to 59 °C"

